Examples of sequences with documented apparent KD of MS2 coat protein follow.
system: MS2 coat protein; test: apparent KD of MS2 coat protein; designed switch direction (-1 OFF switch, 1 ON switch): 1; higher = weaker reporter binding; details: input ligand: none

sequence record: GCGAGCGUACUUGCUACAUGAGGAUCACCCAUGUUUUAUGGACAGGAUAUGGUACCGUUUCGGUACCAGAAGGGUUCACAUGUG [JL SSNG3 3.82] (Eterna round: R96, puzzle: Same State NG 3)
apparent KD of MS2 coat protein [nM]: 254

sequence record: ACAUGAGAGAUAGGAUAUCUUGUACCUACAUGUGACAUGAGGAUCACCCAUGUGGUAAGUAUGAGGGAGAAGGAUCAGAUAUGU [Equivalence 42 - Jieux - Same State NG 2] (Eterna round: R96, puzzle: Same State NG 2)
apparent KD of MS2 coat protein [nM]: 45.2

sequence record: GGAAUAUGAUGUUACAUGAGGAUCACCCAUGUAGUAAUAACUAAGGAUAUCUGAAAAGGAGGAGAAGAGAAGGUAGGAUCAUAA [AK SSNG3-V2-10.1] (Eterna round: R96, puzzle: Same State NG 3)
apparent KD of MS2 coat protein [nM]: 33.3

sequence record: CGCAACGGCUGAGGAUAUGUCAACACGGGACGGGCAGAAGGUAGCAACCACCCACAUGAGGAUCACCCAUGUAUCCAAAUUCAC [Eternabot solution 38] (Eterna round: R96, puzzle: Same State NG 1)
apparent KD of MS2 coat protein [nM]: 42.3

sequence record: AGCUAUUAAUCAGGAUAUGGUCACAUGAGGAUCACCCAUGUGUAGAUGAUAAAAUGUGGUCAACACUAGAAGGGAUUGCUAACA [SameState NG2 #61] (Eterna round: R96, puzzle: Same State NG 2)
apparent KD of MS2 coat protein [nM]: 37

sequence record: UUAAUGAAGUAAGGAUAUACAUGAGGAUCACUCGUAGAAGGUACUAAACAUGAGGAUCACCCAUGUACCGGUCCGUAGACUGGA [JL SSNG1 1.01] (Eterna round: R96, puzzle: Same State NG 1)
apparent KD of MS2 coat protein [nM]: 572

sequence record: GGUAAGAAUUAAGGAUAUUGAUUACAUAUGUUUAACAUGAGGAUCACCCAUGUGGGUUGCGGUAUCGAGAAGGUAAAAUAAUAG [Mat - same State NG 2 - JL mod - D83] (Eterna round: R96, puzzle: Same State NG 2)
apparent KD of MS2 coat protein [nM]: 170

sequence record: UGCCUGUCCGAAGGAUAUCUCAGCGAUCUUUUGGGAGAAGGUCGGAUGCAACAUGAGGAUCACCCAUGUGUAUAUAUCGCUGAC [Eternabot solution 48] (Eterna round: R96, puzzle: Same State NG 1)
apparent KD of MS2 coat protein [nM]: 20.1

sequence record: GUCGGACCGGAAGGAUAUAACGACUGGUGUUUUCACAUGAGGAUCACCCAUGUAUCUCUACCGUGUUAGAAGGUUCGGAGGAAU [Eternabot solution 49] (Eterna round: R96, puzzle: Same State NG 2)
apparent KD of MS2 coat protein [nM]: 20.4

* * *

test system: MS2 coat protein; test: apparent KD of MS2 coat protein; designed switch direction (-1 OFF switch, 1 ON switch): -1; higher = weaker reporter binding; details: Eterna round: R95; input ligand: FMN 200 uM
outcome measure: apparent KD of MS2 coat protein (nM)

sequence record: GUCACUAGAGGAUAUACAAUGGUAUAUGAUCCUAGAGACAAACAUGAGGAUCACCCAUGUAGAAGGCUAGUAAU [Exclusion 2 - 3] (puzzle: Exclusion 2)
system under test: MS2 coat protein
scale unit: nM
reported: 23.8
//
sequence record: CGUUACUACAAGCUUUGGGACAUGAGGAUCACCCAUGUUCGUCUUAUUGUAGUAGGUACGCUGACGUACCUACUACU [JL-sv1-2.10 Brourd mod] (puzzle: Sensor v3, turn-off variant 1)
system under test: MS2 coat protein
scale unit: nM
reported: 15.6
//
sequence record: AGUACUAACACGAGAGUGUUAGUACUAUAAGCUUGUGUUACAUGAGGAUCACCCAUGUCCUCAUAAGCUCGUCUUAA [Mat - Sensor v3 - Turn-off var 2 - D64] (puzzle: Sensor v3, turn-off variant 2)
system under test: MS2 coat protein
scale unit: nM
reported: 33.3

* * *

test system: MS2 coat protein; experiment: apparent KD of MS2 coat protein; designed switch direction (-1 OFF switch, 1 ON switch): 1; higher = weaker reporter binding; conditions: input ligand: FMN 200 uM
Examples of sequences with documented apparent KD of MS2 coat protein follow.
outcome measure: apparent KD of MS2 coat protein (nM)

sequence record: AUUGCUAGCACAGGAUAUCAUGCGAAAAUUGCGUGAGAAGGGUGGACUCUGUCAUUCACGGAGGACAUGAGGAUCACCCAUGUC [SameState NG1 #80] (Eterna round: R96, puzzle: Same State NG 1)
scale unit: nM
reported: 193

sequence record: GUGGUGGGUUGAGGAUAUUGGUUGCAUAUGUUUAACAUGAGGAUCACCCAUGUGGGUUGCGGUUUCGAGAAGGUAGGUUGCUGG [salish99_SSNG2_r04_045bad] (Eterna round: R96, puzzle: Same State NG 2)
scale unit: nM
reported: 112

sequence record: GUGGUCAGACAUGAGGAUCACCCAUGUGGAAUAAAUAACGUACAGGAUAUUGAAUAUAGGAUAUACAAGAAGGGUAGAUUGGUG (Eterna round: R96, puzzle: Same State NG 3)
scale unit: nM
reported: 167

sequence record: AUUGCUUACGCAGGAUAUGAUGCGAAAAUUGCGUCAGAAGGGUGAAGUAACUCAUUGCAACAGGACAUGAGGAUCACCCAUGUC [SameState NG1 #89] (Eterna round: R96, puzzle: Same State NG 1)
scale unit: nM
reported: 105

sequence record: UGGUACAUGGGAGGAUAUCUCGUAGAGACAUGAGGAUCACCCAUGUAGAUGGCCGGUAACCGGGAAGAGAAGGCCCAUGUACCU [JL SSNG1 3.66] (Eterna round: R96, puzzle: Same State NG 2)
scale unit: nM
reported: 203

* * *

tested on: MS2 coat protein; experiment: apparent KD of MS2 coat protein; higher = weaker reporter binding; conditions: Eterna round: R107; input ligand: theophylline 20 uM
Examples of sequences with documented apparent KD of MS2 coat protein follow.

sequence record: AUUUAUGGUCGUGAUACCAGACAUACAUGAGGAUCACCCAUGUGAAAUAACAUAAUUUAGGUCCCUUGGCAGCACUUUUUAAUUA [JR_Nu_SSTheophyB_Sub020]
scale unit: nM
apparent KD of MS2 coat protein: 63.6
//
sequence record: GCUUGGGUGGCACAGCACUGGCAGUGCGAUACCAGCACGGUAACGUGCCCUUGGCAGCGCACAUGAGGAUCACCCAUGUGGUGCG [#1 Exclusion - Theophylline A Attempt #26 (HarryS)]
scale unit: nM
apparent KD of MS2 coat protein: 66.9
//
sequence record: GAGCGCGUGGACUGGCGUGCUCCGCUCCGUCGAGGACCGGUACGGCCGCCACUCGACAUGAGGAUCACCCAUGUGUGCGCUCGCG [#1 Exclusion - Tryptophan A Attempt #19 (HarryS)]
scale unit: nM
apparent KD of MS2 coat protein: 210
//
sequence record: AGGUACGAAAACGUGGGUGAGUCGUACCAACGAGGACCGGUACGGCCGCCACUCGAAUAAACAUGAGGAUCACCCAUGUAAUAAU [T''-M-T'-T-MS2 - Design 6]
scale unit: nM
apparent KD of MS2 coat protein: 58.3
//
sequence record: CGCCGCGGGAGAAGGAGCGCGAUAACAUAACAUGAGGAUCACCCAUGUAAGAAAUUAAUCAUGCAGGUAGGUCGCUCCCGCGGCG [Same State Arginine B GF 4]
scale unit: nM
apparent KD of MS2 coat protein: 26.5
//
sequence record: GUCGGAGUCUGAAGGAGCGACAUGAGGAUCACCCAUGUCUCCCGUUAUGGGAGUUCCUUAGGUCAGGUAGGUCGCAGACUCCGAC [#1 Exclusion - Arginine B Attempt #25 (Inspired by Omei)]
scale unit: nM
apparent KD of MS2 coat protein: 145
//
sequence record: AUGCAACAUGAGGAUCACCCAUGUGGUGAUACCAGUCGACAAGUAGACCCUUGGCAGCACAGCCGAUAUCGAGAGAGAUUUUUGG [theeternabot_sameState_MS2_Theo_A_23]
scale unit: nM
apparent KD of MS2 coat protein: 476
//
sequence record: UGUAUGUGAUCUGAUACCAGCUAAUAAGCUUGAGGAUCACCCAAGUGGAGCGGAAACGCAGGCCCUUGGCAGCAGAUCGCAUACU [Denovo 9 #StaticStem #AlternativeMS2]
scale unit: nM
apparent KD of MS2 coat protein: 34.4
//
sequence record: CGGUCGGUCGGCCGGUGAUUAUGGGAUGAAGGAGCGUGGGAAGCUACAGGUAGGUCGCAUCCGAAAGAUGAGGAUCACCCAUCUU [SSArg A #24Alt-Ms2 Mod]
scale unit: nM
apparent KD of MS2 coat protein: 34.4
//
sequence record: UGUAUGGACUGAAGGAGCGGGUUGAUAACAUGAGGAUCACCCAUGUAAAAGGCGAAAGCCGCCCAGGUAGGUCGCAGUCCAUACU
scale unit: nM
apparent KD of MS2 coat protein: 19.5
//
sequence record: AAUGUCGGAUCGGCCGCCACUGGUUGGCCCUGUGUACAUGAGGAUCACCCAUGUCCAUCCCAAACCAGGACCGGGAUCUUUAUGU [Xeananor]
scale unit: nM
apparent KD of MS2 coat protein: 51.7
//
sequence record: AGGACAUCGGGAAGGAGCGCAUCCAAACCACACAUGAGGAUCACCCAUGUAUAAAUAUGCAUGCAGGUAGGUCGCCCGGUGUCUC [Veaza]
scale unit: nM
apparent KD of MS2 coat protein: 140
//
sequence record: AAUAAUAGGUGAUCUUAAGUCGUACCGUAACGAGGACCGGUACGGCCGCCACUCGAACAUGAGGAUCACCCAUGUAUGUAUGAUA [whbob_SS_trypto A_f5]
scale unit: nM
apparent KD of MS2 coat protein: 242
//
sequence record: UUAGAUAUGACAGAUACCAGCGUGUUGUAGAACAUGAGGAUCACCCAUGUAGUGAUCAAGCGCCCUUGGCAGCUGGUAUGUUUGG [7.X]
scale unit: nM
apparent KD of MS2 coat protein: 277
//
sequence record: AAUUAUCAGUCGGCCGCCACUGACACAUGAGGAUCACCCAUGUAACUUGGGUUAAAUUUACUGAACAGGACCGGGACAAAGGCUA [JR_ExcTryptoB_Sub009]
scale unit: nM
apparent KD of MS2 coat protein: 193
//
sequence record: AGUGUUAUAACUGAUACCAGACCUUUGCUUAUACAUGAGGAUCACCCAUGUAAAAUGGCUGUCCCUUGGCAGCAGAGAAUACACA [#07 Same State - Theophylline B]
scale unit: nM
apparent KD of MS2 coat protein: 45.2
//
sequence record: AGACAUGUAAGAUAAAUGACUUAUACAGAUACCAGACUAGUCAAUGUCCCUUGGCAGCUGCAUAACAUGAGGAUCACCCAUGUAA [JR_ExcTheophyA_Sub009]
scale unit: nM
apparent KD of MS2 coat protein: 27.5
//
sequence record: GGACCAUGGAGCGAUACCAGCUUGAGUGUACUGGCCAGGUACAUGAGGAUCACCCAUGUAAGCCCUUGGCAGCGCUCCAUGGUCC [#1 Exclusion - Theophylline B Attempt #25 (HarryS)]
scale unit: nM
apparent KD of MS2 coat protein: 14.7
//
sequence record: UUACAUGAGGAUCACCCAUGUUUACUAUGUCGAGGACCGGUACGGCCGCCACUCGUAUUUGAUGAUUUAGGUGCCACAAGUUAUU [JR_Nu_ExcTryptoA_Sub024]
scale unit: nM
apparent KD of MS2 coat protein: 26.6
//
sequence record: GCACGACAUGAGGAUCACCCAUGUGCAGAUACCAGUAAUGUAUAUUACCCUUGGCAGCUGAGUAGGUCUGGAGGGCUAUAGGUAA [Same State Theophylline A GF11]
scale unit: nM
apparent KD of MS2 coat protein: 20.6
//
sequence record: UGUACUAUGUGAAGGAGCGAGAAUCCUACAUGAGGAUCACCCAUGUAAGAGCGAAAGCUCACUCAGGUAGGUCGCACAUAGUACU [#17 Same State - Arginine B]
scale unit: nM
apparent KD of MS2 coat protein: 44.1
//
sequence record: ACAUGAGGAUCACCCAUGUGCCGUCUUGAUACCAGACGCGAAGUAGUCCCUUGGCAGCAACUACGUGACGGUCGCGCAUGUGUAG [bcxmullin]
scale unit: nM
apparent KD of MS2 coat protein: 21.4
